# ASSAY_EXPLANATION: Saturation solubility of diamorphine base in solvents
# APPLIED_CONDITIONS: R-(+)-Limonene, organic solvent or mixture
MEASUREMENT_LABEL: solubility

• CC(=O)Oc1ccc2c3c1O[C@H]1[C@@H](OC(C)=O)C=C[C@H]4[C@@H](C2)N(C)CC[C@@]341 = 25.1 mg/mL

* * *

# ASSAY_EXPLANATION: Saturation solubility of diamorphine base in solvents
# APPLIED_CONDITIONS: Tween 80, organic solvent or mixture
MEASUREMENT_LABEL: solubility (µg/mL)

- CC(=O)Oc1ccc2c3c1O[C@H]1[C@@H](OC(C)=O)C=C[C@H]4[C@@H](C2)N(C)CC[C@@]341: 5810
